Read-out: Interleukin-1 alpha (IL1a), IL1A (gene 3552)
EXPERIMENTAL_DETAILS: BSK_BE3C_IL1a: BioMAP Diversity Plus: BE3C Assay for Interleukin-1 alpha (IL1a) Biomarker Activity (AID 2283016)
CONDITION_PARAMETERS: primary human bronchial epithelial cells; actives raise or lower the signal
Calls of active or inactive are those of the source. How the source made its calls: active means hit-call score of the fitted dose curve at least 0.9, where 1 is the maximum; inactive means score below 0.9.
ATTRIBUTE_MEASURED: outcome

Study these solved cases before continuing.
| MOLECULE | outcome |
| --- | --- |
| CC(C)=CCCC(C)=CC=O | inactive |
| CC(C)=CCCC(C)CCO (configuration not stated) | inactive |
| COCCOCCOCCOC | inactive |
| C=CCCCCCCCCC(=O)O | inactive |
| Cc1c(-c2cccnc2)c2ccccc2n1CCCCC(=O)O | inactive |
| Nc1nc2ncc(CNc3ccc(C(=O)N[C@@H](CCC(=O)O)C(=O)O)cc3)nc2c(=O)[nH]1 | inactive |

outcome reported for this molecule CCn1nc(Cc2ccccc2)cc1C1CCN(C[C@H]2C[C@H](N(C)[C@@H](C(=O)O)C(C)C)C[C@@H]2c2cccc(F)c2)CC1 : inactive
